Tested on: 786-0 renal
Protocol: NCI-60 one-dose screen, 48 h
Conditions used: 10 µM unless noted
Compounds without any hit were thinned out: in the full panel of roughly 83,000, 20% have a hit. Calls of active or inactive are those of the source. Rule for the calls: active = growth percent below 10; inactive = the rest.
The reply should name one outcome from y = active, n = inactive

CC(=O)OCCOc1cc(Cl)c(Cl)cc1Cl : n
CCCn1cnc2c(c1=N)C(c1ccc(Cl)cc1)c1sc3c(F)cccc3c1O2 (stereo unspecified) : n
Cc1ccc(-c2nnc(SCc3nc(N)nc(Nc4ccccc4F)n3)n2-c2ccccc2)cc1 : n
COc1ccc(C2=C/C(=C\c3ccccc3O)C(=O)N2Cc2ccccc2)cc1 : n
O=C1/C(=C/c2cccc(Br)c2)COc2ccc(O)c(O)c21 : y
O=C(Oc1ccccc1)c1cc(O)c(O)c(O)c1 : n

Qu. Hello, I am checking results. What call was entered for "Cn1ccnc1C(=O)/C=C/c1ccc(C(=O)Nc2c(F)c(F)c(F)c(F)c2F)cc1" ?
Ans. y

Qu. Hello, I am checking results. What call was entered for "CCOC(=O)c1c(C)c2c(n1Cc1ccccc1)CSc1cc(C#N)c(=O)[nH]c1-2" ?
Ans. n

Qu. Hello, I am checking results. What call was entered for CCN1C(=O)N(CC)C2C1NC(=S)N2/N=C/C=C/c1ccccc1 (stereo unspecified) ?
Ans. n

Qu. Hello, I am checking results. What call was entered for CC1(C)C2=C(C(=O)N1Cc1ccccc1)C(c1ccco1)N(C(=O)C1CCC1)CCN2 (stereo unspecified) ?
Ans. n

Qu. Hello, I am checking results. What call was entered for "Oc1c(Cl)cc(Cl)c2ccc(CN3CCNCC3)nc12" ?
Ans. n
